Can you tell me Fold Increase over WT CD80-IgV-Fc, Jurkat/IL2 + CHO/OKT3/PD-L1 Reporter Assay for the items I'm about to list?
biological target: human PD-L1 (human, UniProt Q9NZQ7 19-290); assay: cell-based or functional assay
Sequence (Q9NZQ7 19-290): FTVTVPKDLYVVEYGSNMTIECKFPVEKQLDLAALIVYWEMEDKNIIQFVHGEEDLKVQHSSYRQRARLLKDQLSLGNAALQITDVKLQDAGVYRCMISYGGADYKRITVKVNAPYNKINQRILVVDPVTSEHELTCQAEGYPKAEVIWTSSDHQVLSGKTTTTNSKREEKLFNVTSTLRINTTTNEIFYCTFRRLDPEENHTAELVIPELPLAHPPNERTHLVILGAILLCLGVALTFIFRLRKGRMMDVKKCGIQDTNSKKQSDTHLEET
One number for each entry, in fold.

{"Binder": "CD80 E35D/D46V/M47L/V68M/L85Q/E88D IgV-Fc, delta linker (Fc fusion, Fused directly to the Fc with no additional linker; also called E35D/D46V/M47L/V68M/L85Q/E88D delta) VIHVTKEVKEVATLSCGHNVSVEELAQTRIYWQKDKKMVLTMMSGVLNIWPEYKNRTIFDITNNLSIMILALRPSDEGTYECVVQKYDKDAFKREHLAEVTLSVKTHTCPPCPAPEAEGAPSVFLFPPKPKDTLMISRTPEVTCVVVDVSHEDPEVKFNWYVDGVEVHNAKTKPREEQYNSTYRVVSVLTVLHQDWLNGKEYKCKVSNKALPAPIEKTISKAKGQPREPQVYTLPPSREEMTKNQVSLTCLVKGFYPSDIAVEWESNGQPENNYKTTPPVLDSDGSFFLYSKLTVDKSRWQQGNVFSCSVMHEALHNHYTQKSLSLSPG", "Unit Annotation": "fold", "Measured": 2.77}
{"Binder": "CD80 E35D/D46V/M47L/V68M/L85Q/E88D IgV-Fc, (EAAAK)3 linker (Fc fusion, not shown: a dimerising Fc or GST) VIHVTKEVKEVATLSCGHNVSVEELAQTRIYWQKDKKMVLTMMSGVLNIWPEYKNRTIFDITNNLSIMILALRPSDEGTYECVVQKYDKDAFKREHLAEVTLSVKADEAAAKEAAAKEAAAK", "Unit Annotation": "fold", "Measured": 5.25}

Please look at the following binder next.
Task: Given the entry CD80 E35D/D46V/M47L/V68M/L85Q/E88D IgV-Fc, EAAAK linker (Fc fusion, not shown: a dimerising Fc or GST) VIHVTKEVKEVATLSCGHNVSVEELAQTRIYWQKDKKMVLTMMSGVLNIWPEYKNRTIFDITNNLSIMILALRPSDEGTYECVVQKYDKDAFKREHLAEVTLSVKADEAAAK , report its measured Fold Increase over WT CD80-IgV-Fc, Jurkat/IL2 + CHO/OKT3/PD-L1 Reporter Assay.
Output: 3.75
